Would you mind telling me the reported Percent Effect of each entry?
System: Trypanosoma cruzi
testSummary: Trypanosoma cruzi phosphomannomutase and mannose-1-phosphate guanylyltransferase assay
Type: functional
Design: scale not given: direction of the effect not stated beside the values
settings: 10 µM
One number for each entry, in %.

{"structureSmiles": "COCCN1CCC(CNC(=O)C2(c3cccc(C)c3)CC2)CC1", "measurementType": "Percent Effect", "unitAbbreviation": "%", "resultNumber": -4.82}
{"structureSmiles": "COc1cccc(CN(C)S(=O)(=O)N2CCOCC2)c1", "measurementType": "Percent Effect", "unitAbbreviation": "%", "resultNumber": 2.63}
{"structureSmiles": "CCn1cnnc1CNC(=O)c1cc(Cl)ccc1OC", "measurementType": "Percent Effect", "unitAbbreviation": "%", "resultNumber": -2.56}

Now examine the next entry.
Problem: Please indicate Percent Effect recorded for CS(=O)(=O)NC[C@H]1OC[C@@H]2CCN(Cc3ccc(F)cc3)C[C@@H]21
Solution: -1.74

* * *

Would you mind telling me the reported Percent Effect of each entry?
measurementTarget: Ubiquitin-activating enzyme e1, putative (Leishmania donovani (strain BPK282A1))
Sequence (whole entry): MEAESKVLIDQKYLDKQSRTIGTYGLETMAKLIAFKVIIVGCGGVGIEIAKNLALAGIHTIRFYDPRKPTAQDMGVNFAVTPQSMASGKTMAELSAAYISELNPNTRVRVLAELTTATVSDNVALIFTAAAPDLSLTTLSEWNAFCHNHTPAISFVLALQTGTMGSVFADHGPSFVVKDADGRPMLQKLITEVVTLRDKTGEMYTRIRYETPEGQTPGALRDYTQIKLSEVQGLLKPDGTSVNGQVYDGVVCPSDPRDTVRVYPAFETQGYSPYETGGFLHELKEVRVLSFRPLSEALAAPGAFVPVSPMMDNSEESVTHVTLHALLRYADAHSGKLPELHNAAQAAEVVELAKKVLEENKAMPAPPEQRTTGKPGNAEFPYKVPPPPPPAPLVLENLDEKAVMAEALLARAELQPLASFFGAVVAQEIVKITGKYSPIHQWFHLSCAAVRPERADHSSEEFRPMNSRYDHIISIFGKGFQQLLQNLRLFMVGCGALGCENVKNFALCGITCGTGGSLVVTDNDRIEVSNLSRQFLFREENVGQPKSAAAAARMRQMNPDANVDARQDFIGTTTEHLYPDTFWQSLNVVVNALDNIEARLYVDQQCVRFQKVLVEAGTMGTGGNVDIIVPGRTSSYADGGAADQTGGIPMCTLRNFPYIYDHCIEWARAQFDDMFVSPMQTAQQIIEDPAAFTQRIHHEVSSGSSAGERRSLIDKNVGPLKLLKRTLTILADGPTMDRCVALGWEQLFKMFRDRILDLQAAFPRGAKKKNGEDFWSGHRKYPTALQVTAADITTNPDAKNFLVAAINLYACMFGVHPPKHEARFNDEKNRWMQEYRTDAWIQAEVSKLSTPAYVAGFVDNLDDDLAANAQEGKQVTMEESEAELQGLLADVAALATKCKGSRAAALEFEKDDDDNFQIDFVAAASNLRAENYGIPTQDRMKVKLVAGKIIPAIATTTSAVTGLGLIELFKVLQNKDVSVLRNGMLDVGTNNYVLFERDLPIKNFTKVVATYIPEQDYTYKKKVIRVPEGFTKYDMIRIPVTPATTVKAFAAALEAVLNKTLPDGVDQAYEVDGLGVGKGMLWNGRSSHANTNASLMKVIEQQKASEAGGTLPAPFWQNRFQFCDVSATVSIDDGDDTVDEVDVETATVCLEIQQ
testSummary: Leishmania donovani Ubiquitin Activating Enzyme (LdE1)
Assay type: functional
Parameters: scale not given: direction of the effect not stated beside the values
settings: 30 µM
Results with a measured potency or affinity are listed apart.
Answers are plain numbers, in %.

{"molecule": "CCc1noc(CNc2ccc(F)cc2OCC2CC2)n1", "unitAbbreviation": "%", "Percent Effect": 18.9}

I need Percent Effect for every entry listed below, if you could help.
1. CCCOc1cc(CNC(=O)Nc2cccnc2N2CCCC2)ccn1
2. Cc1ncc(C)c(N2CCCC(CO)(Cc3cccc(Cl)c3)C2)n1 (stereo not drawn)
3. COc1ccc(NC(C)C(=O)N2CCN(c3ncccn3)CC2)cn1 (stereo not drawn)
4. O=C(O)c1ccn(-c2ccccc2NS(=O)(=O)c2ccccc2)n1
5. CS(=O)(=O)NCc1n[nH]c2c1CCN(C(=O)c1ccsc1)C2
6. COc1cccc(C(=O)N2CCCC(C(=O)CCc3ccccc3)C2)c1 (stereo not drawn)

Solution:
1. -2.7
2. 13
3. 8.22
4. 0
5. 0
6. 11

* * *

Would you mind telling me the reported Percent Effect of each entry?
measurementTarget: Protein translocase subunit SecA (Escherichia coli (strain K12))
testSummary: Assay to Identify E. coli SecA ATPase Inhibitors
Format: functional
Design: scale not given: direction of the effect not stated beside the values
settings: 30 µM
Results with a measured potency or affinity are listed apart.
Answers are plain numbers, in %.

Answered cases to consult:
{"compound": "O=C1NCCN1C1CCN(Cc2ccccn2)CC1", "unitAbbreviation": "%", "resultNumber": -1.85}
{"compound": "COCC(=O)N1Cc2cn(C)nc2C(COc2cccnc2)C1 (stereo not given)", "unitAbbreviation": "%", "resultNumber": 1.2}
{"compound": "CC1=Nc2c(c(=O)[nH]n2C(C)C)C(c2ccccc2)S1 (stereo not given)", "unitAbbreviation": "%", "resultNumber": -5.22}
{"compound": "Cc1ccoc1C(=O)N1CCO[C@H]2[C@H](OCCN(C)C)CC[C@@H]21", "unitAbbreviation": "%", "resultNumber": 0.717}
{"compound": "Cc1oc(C(=O)O)cc1S(=O)(=O)Nc1ccc(Cl)c(F)c1", "unitAbbreviation": "%", "resultNumber": -4.46}
{"compound": "CCN1CCC2(CC1)CC(NC(=O)NC)c1cc(C)ccc12 (stereo not given)", "unitAbbreviation": "%", "resultNumber": -3.84}
{"compound": "O=C(CCCc1cn[nH]c1)N1C[C@@H](CN2CCOCC2)[C@@H](CO)C1", "unitAbbreviation": "%", "resultNumber": -5.38}
{"compound": "CCn1nc(C)cc1C(=O)Nc1cc(F)ccc1OCC1CCCO1 (stereo not given)", "unitAbbreviation": "%", "resultNumber": -3.27}
{"compound": "Cc1cccc(-c2ccc(C(=O)NCC3CCOC3)c(=O)[nH]2)c1 (stereo not given)", "unitAbbreviation": "%", "resultNumber": -2.02}
{"compound": "O=C(NCCOCC(F)(F)F)c1ccc(-c2ccco2)[nH]c1=O", "unitAbbreviation": "%", "resultNumber": -1.86}

I need Percent Effect for every entry listed below, if you could help.
1. CC(C)c1nc(C2CCCN2CCCc2nc3ccccc3o2)no1 (stereo not given)
2. CCCNC(=O)c1sc(Nc2ccc(Cl)cn2)nc1C
3. Cc1ccc(C)c(OCCN2CCC(N3CCNC3=O)CC2)c1

Solution:
-2.74
-0.647
-3.83

I need Percent Effect for every entry listed below, if you could help.
1. Cc1ncc2c(n1)CN(Cc1noc(C3CC3)n1)CC2
2. COc1cccc(N2CCN(Cc3ccc(NC(C)=O)cc3)CC2=O)c1

Solution:
[-6.18, -2.84]

* * *

measurementTarget: Tyrosyl-tRNA synthetase, putative (Trypanosoma cruzi (strain CL Brener))
testSummary: Trypanosoma cruzi tyrosyl tRNA synthetase (TcYRS) _High Tyrosine SOP; note: in the data most compounds retested in dose-response had high values
Type: functional
Parameters: scale not given: direction of the effect not stated beside the values
settings: 30 µM
measurementType: Percent Effect
Give your result as the value with the unit written after it.

{"molecule": "Cc1ccc(NC(=O)N(C)Cc2cnn(C)c2)cc1OCC(F)F", "measurementType": "Percent Effect", "result": "3.45%"}
{"molecule": "CCc1csc(C2CCCN(C(=O)c3c[nH]c(C)n3)C2)n1 (stereo unspecified)", "measurementType": "Percent Effect", "result": "2.91%"}
{"molecule": "Cc1ccc2cnn(CCC(=O)Nc3c(C)nn(C)c3C)c2c1", "measurementType": "Percent Effect", "result": "2.15%"}
{"molecule": "CCn1nc(CNC(=O)C2CC(=O)N(C3CCCC3)C2)c2ccccc21 (stereo unspecified)", "measurementType": "Percent Effect", "result": "-0.529%"}
{"molecule": "O=C(c1ccc[nH]1)N1CCn2cc(Cn3cncn3)nc2C1", "measurementType": "Percent Effect", "result": "3.19%"}

I need Percent Effect for every entry listed below, if you could help.
1. Cn1cc(CN2CCn3c(CNC(=O)c4cccn4C)cnc3C2)cn1
2. CN(C)CCn1c(=O)oc2ccc(NC(=O)c3cc(Cl)c[nH]3)cc21
3. CNC(=O)N1CC[C@H]2N(C)CC[C@@]2(C(=O)Nc2ccccc2)CC1
4. CN(C)Cc1ccnc(C2CCCN2Cc2ccncc2)n1 (stereo unspecified)
5. CN(C)c1ncnc2c1CCN(CC1CCOC1)CC2 (stereo unspecified)
6. Cc1nc(CN2C(=O)COC3(CCN(Cc4ccco4)CC3)C2C)cs1 (stereo unspecified)
7. Cc1cc(NC(=O)NCc2ccccn2)n(C)n1
8. COc1ccc(Cc2nnc(SC)o2)cc1OC

Solution:
1: 7.29%; 2: 19.1%; 3: 1.98%; 4: 3.23%; 5: 3.24%; 6: 3.12%; 7: 2.08%; 8: 3.83%
